- protocol_description: Lipopeptide hydrophobicity by RP-HPLC (adjusted retention time)
- Assay type: physicochemical
- conditions: RP-HPLC, 20–65% acetonitrile over 30 min, indicator of hydrophobicity
Where a SMILES comes first, the peptide text is derived from it. Bridges are numbered along the chain shown (N, C = ends). Roman numbers before positions name the chains, in order. Side-chain parts run from the residue outwards. [ ]: non-standard residue; d: D form. The star is where a group is joined. Decanoyl = CCCCCCCCCC(=O)*; Nle = CCCC[C@H](N)C(=O)O; Octanoyl = CCCCCCCC(=O)*
recorded_metric: Adjusted Retention Time (min)
Provide the reading as a plain figure in min.

Give me measured Adjusted Retention Time, please, for this molecule: CCCCCCCC(=O)N[C@@H](CCCC)C(=O)N[C@@H](CCCNC(=N)N)C(=O)N[C@@H](CCCNC(=N)N)C(=O)N[C@@H](CSSC[C@H](NC(=O)[C@H](CCCNC(=N)N)NC(=O)[C@H](CCCNC(=N)N)NC(=O)[C@H](CCCC)NC(=O)CCCCCCC)C(N)=O)C(N)=O [Compound C6] (I: Octanoyl-[Nle]RRC-NH2 / II: Octanoyl-[Nle]RRC-NH2; disulfide I:4-II:4)
14.29

State its Adjusted Retention Time for this molecule: CCCCCCCCCC(=O)N[C@@H](CCCNC(=N)N)C(=O)N[C@@H](CCCNC(=N)N)C(=O)N[C@@H](CSSC[C@H](NC(=O)[C@H](CCCNC(=N)N)NC(=O)[C@H](CCCNC(=N)N)NC(=O)CCCCCCCCC)C(N)=O)C(N)=O [Compound C2] (I: Decanoyl-Arg-Arg-Cys-NH2 / II: Decanoyl-Arg-Arg-Cys-NH2; disulfide I:3-II:3)
13.94

Fill in reported Adjusted Retention Time for this entry: CCCCCCCC(=O)N[C@@H](Cc1ccccc1)C(=O)N[C@@H](CCCNC(=N)N)C(=O)N[C@@H](CCCNC(=N)N)C(=O)NCCCC[C@H](NC(=O)[C@H](CCCNC(=N)N)NC(=O)[C@H](CCCNC(=N)N)NC(=O)[C@H](Cc1ccccc1)NC(=O)CCCCCCC)C(N)=O [Compound B5] (Octanoyl-FRRK([Arg-Arg-Phe-Octanoyl])-NH2)
15.19

Annotate the molecule CCCCCCC(CCCC)C(=O)N[C@@H](CCCNC(=N)N)C(=O)N[C@@H](CCCNC(=N)N)C(=O)NCCCC[C@H](NC(=O)[C@H](CCCNC(=N)N)NC(=O)[C@H](CCCNC(=N)N)NC(=O)C(CCCC)CCCCCC)C(N)=O (stereo partly shown) with its measured Adjusted Retention Time.
14.68

* * *

- Tested on: C. glabrata ATCC 15126
- conditions: ATCC 15126, 24 h
Where a SMILES comes first, the peptide text is derived from it. Bridges are numbered along the chain shown (N, C = ends). Roman numbers before positions name the chains, in order. Side-chain parts run from the residue outwards. [ ]: non-standard residue; d: D form. The star is where a group is joined. Nle = CCCC[C@H](N)C(=O)O; Octanoyl = CCCCCCCC(=O)*
recorded_metric: MIC C. glabrata ATCC 15126 (µg/mL)
# output: bare number, implied unit µg/mL

Check out these entries, answers already filled in.
[[record]]
molecule = "CCCCCCCC(=O)N[C@@H](CCCNC(=N)N)C(=O)N[C@@H](CCCNC(=N)N)C(=O)N[C@@H](CSSC[C@H](NC(=O)[C@H](CCCNC(=N)N)NC(=O)[C@H](CCCNC(=N)N)NC(=O)CCCCCCC)C(N)=O)C(N)=O [Compound C1] (I: Octanoyl-Arg-Arg-Cys-NH2 / II: Octanoyl-Arg-Arg-Cys-NH2; disulfide I:3-II:3)"
recorded_metric = "MIC C. glabrata ATCC 15126"
value_unit = "µg/mL"
measured_result = 64

[[record]]
molecule = "CCCCCCCC(=O)N[C@@H](Cc1ccccc1)C(=O)N[C@@H](CCCNC(=N)N)C(=O)N[C@@H](CCCNC(=N)N)C(=O)NCCCC[C@H](NC(=O)[C@H](CCCNC(=N)N)NC(=O)[C@H](CCCNC(=N)N)NC(=O)[C@H](Cc1ccccc1)NC(=O)CCCCCCC)C(N)=O [Compound B5] (Octanoyl-FRRK([Arg-Arg-Phe-Octanoyl])-NH2)"
recorded_metric = "MIC C. glabrata ATCC 15126"
value_unit = "µg/mL"
measured_result = 16


Okay, now this molecule:
// fetch MIC C. glabrata ATCC 15126; item: CCCCCCCC(=O)N[C@@H](CCCC)C(=O)N[C@@H](CCCNC(=N)N)C(=O)N[C@@H](CCCNC(=N)N)C(=O)NCCCC[C@H](NC(=O)[C@H](CCCNC(=N)N)NC(=O)[C@H](CCCNC(=N)N)NC(=O)[C@H](CCCC)NC(=O)CCCCCCC)C(N)=O [Compound B6] (Octanoyl-[Nle]RRK([Arg-Arg-Nle-Octanoyl])-NH2) ; system: C. glabrata ATCC 15126
16

* * *

- protocol_description: Lipopeptide hydrophobicity by RP-HPLC (adjusted retention time)
- Type: physicochemical
- conditions: RP-HPLC, 20–65% acetonitrile over 30 min, indicator of hydrophobicity
Where a SMILES comes first, the peptide text is derived from it. Bridges are numbered along the chain shown (N, C = ends). Roman numbers before positions name the chains, in order. Side-chain parts run from the residue outwards. [ ]: non-standard residue; d: D form. The star is where a group is joined. Nle = CCCC[C@H](N)C(=O)O; Octanoyl = CCCCCCCC(=O)*
Collected Adjusted Retention Time values appear next to each entry.
Write the number in min without appending the unit.

Examples with their reported Adjusted Retention Time follow.
[[record]]
compound = "CCCCCCCC(=O)N[C@@H](CCCNC(=N)N)C(=O)N[C@@H](CCCNC(=N)N)C(=O)NCCCC[C@H](NC(=O)[C@H](CCCNC(=N)N)NC(=O)[C@H](CCCNC(=N)N)NC(=O)CCCCCCC)C(N)=O [Compound B1] (Octanoyl-Arg-Arg-Lys([Arg-Arg-Octanoyl])-NH2)"
measured_result = 8.11

[[record]]
compound = "CCCCCCCC(=O)N[C@@H](CCCNC(=N)N)C(=O)N[C@@H](CCCNC(=N)N)C(=O)N[C@@H](CSSC[C@H](NC(=O)[C@H](CCCNC(=N)N)NC(=O)[C@H](CCCNC(=N)N)NC(=O)CCCCCCC)C(N)=O)C(N)=O [Compound C1] (I: Octanoyl-Arg-Arg-Cys-NH2 / II: Octanoyl-Arg-Arg-Cys-NH2; disulfide I:3-II:3)"
measured_result = 8.26


From here, focus on the item given below.
Name the recorded Adjusted Retention Time of the item CCCCCCCC(=O)N[C@@H](CCCC)C(=O)N[C@@H](CCCNC(=N)N)C(=O)N[C@@H](CCCNC(=N)N)C(=O)NCCCC[C@H](NC(=O)[C@H](CCCNC(=N)N)NC(=O)[C@H](CCCNC(=N)N)NC(=O)[C@H](CCCC)NC(=O)CCCCCCC)C(N)=O [Compound B6] (Octanoyl-[Nle]RRK([Arg-Arg-Nle-Octanoyl])-NH2) in your answer.
13.96

* * *

Reported values of MIC Klebsiella aerogenes ATCC 13048 for individual entries
- Test system: Klebsiella aerogenes ATCC 13048
- conditions: ATCC 13048, 24 h
Where a SMILES comes first, the peptide text is derived from it. Bridges are numbered along the chain shown (N, C = ends). Roman numbers before positions name the chains, in order. Side-chain parts run from the residue outwards. [ ]: non-standard residue; d: D form. The star is where a group is joined. Myristoyl = CCCCCCCCCCCCCC(=O)*; Lauroyl = CCCCCCCCCCCC(=O)*; Decanoyl = CCCCCCCCCC(=O)*; Nle = CCCC[C@H](N)C(=O)O; Octanoyl = CCCCCCCC(=O)*

Please review the entries below; each comes with its answer.
[[record]]
compound = "CCCCCCCCCCCCCC(=O)N[C@@H](CCCNC(=N)N)C(=O)N[C@@H](CCCNC(=N)N)C(N)=O [Compound A4, C14-RR-NH2] (Myristoyl-Arg-Arg-NH2)"
measured_result = "256 (−/−) µg/mL"

[[record]]
compound = "CCCCCCCC(=O)N[C@@H](CCCNC(=N)N)C(=O)N[C@@H](CCCNC(=N)N)C(=O)N[C@@H](CSSC[C@H](NC(=O)[C@H](CCCNC(=N)N)NC(=O)[C@H](CCCNC(=N)N)NC(=O)CCCCCCC)C(N)=O)C(N)=O [Compound C1] (I: Octanoyl-Arg-Arg-Cys-NH2 / II: Octanoyl-Arg-Arg-Cys-NH2; disulfide I:3-II:3)"
measured_result = ">256 (−/−) µg/mL"

[[record]]
compound = "CCCCCCCC(=O)N[C@@H](CCCNC(=N)N)C(=O)N[C@@H](CCCNC(=N)N)C(=O)NCCCC[C@H](NC(=O)[C@H](CCCNC(=N)N)NC(=O)[C@H](CCCNC(=N)N)NC(=O)CCCCCCC)C(N)=O [Compound B1] (Octanoyl-Arg-Arg-Lys([Arg-Arg-Octanoyl])-NH2)"
measured_result = ">256 (−/−) µg/mL"

[[record]]
compound = "CCCCCCCCCCCCCC(=O)N[C@@H](CCCNC(=N)N)C(=O)N[C@@H](CCCNC(=N)N)C(=O)N[C@@H](CSSC[C@H](NC(=O)[C@H](CCCNC(=N)N)NC(=O)[C@H](CCCNC(=N)N)NC(=O)CCCCCCCCCCCCC)C(N)=O)C(N)=O [Compound C4] (I: Myristoyl-Arg-Arg-Cys-NH2 / II: Myristoyl-Arg-Arg-Cys-NH2; disulfide I:3-II:3)"
measured_result = "128 µg/mL"

[[record]]
compound = "CCCCCCCC(=O)N[C@@H](CCCC)C(=O)N[C@@H](CCCNC(=N)N)C(=O)N[C@@H](CCCNC(=N)N)C(=O)NCCCC[C@H](NC(=O)[C@H](CCCNC(=N)N)NC(=O)[C@H](CCCNC(=N)N)NC(=O)[C@H](CCCC)NC(=O)CCCCCCC)C(N)=O [Compound B6] (Octanoyl-[Nle]RRK([Arg-Arg-Nle-Octanoyl])-NH2)"
measured_result = "256 (−/−) µg/mL"

[[record]]
compound = "CCCCCCCCCCCC(=O)N[C@@H](CCCNC(=N)N)C(=O)N[C@@H](CCCNC(=N)N)C(=O)N[C@@H](CSSC[C@H](NC(=O)[C@H](CCCNC(=N)N)NC(=O)[C@H](CCCNC(=N)N)NC(=O)CCCCCCCCCCC)C(N)=O)C(N)=O [Compound C3] (I: Lauroyl-Arg-Arg-Cys-NH2 / II: Lauroyl-Arg-Arg-Cys-NH2; disulfide I:3-II:3)"
measured_result = "32 µg/mL"


# evaluate next
Provide MIC Klebsiella aerogenes ATCC 13048 value for the following compound: CCCCCCCCCC(=O)N[C@@H](CCCNC(=N)N)C(=O)N[C@@H](CCCNC(=N)N)C(N)=O [Compound A2, C10-RR-NH2] (Decanoyl-Arg-Arg-NH2)
>256 (−/−) µg/mL

The reported measurements were obtained from paper PMC8036666.
